Each entry below carries its recorded NADPH fluorescence slope.
Target: Voltage-gated potassium channel subunit beta-2 (Rattus norvegicus) (UniProt P62483)
Sequence (P62483 whole entry, looked up): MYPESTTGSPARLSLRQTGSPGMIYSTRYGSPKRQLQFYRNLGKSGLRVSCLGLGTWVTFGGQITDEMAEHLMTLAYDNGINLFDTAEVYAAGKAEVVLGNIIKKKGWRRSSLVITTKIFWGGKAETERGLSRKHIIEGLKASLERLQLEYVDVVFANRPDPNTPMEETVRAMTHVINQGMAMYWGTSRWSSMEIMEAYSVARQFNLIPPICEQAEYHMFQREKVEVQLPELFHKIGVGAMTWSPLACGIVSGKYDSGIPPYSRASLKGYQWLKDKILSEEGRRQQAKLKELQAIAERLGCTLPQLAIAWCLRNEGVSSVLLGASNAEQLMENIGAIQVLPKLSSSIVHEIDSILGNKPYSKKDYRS
Test: enhancers of rat Kvbeta2 NADPH turnover – biochemical, NADPH fluorescence, primary screen (AID 623);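 further: fluorescence intensity change per second fitted from 20 to 320 s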
Conditions: Recombinant KvBeta, NADPH fluorescence decrease slope, 10 min; at 10 µM; active compounds read low
Reply: number alone, nothing else.

Known results for compounds:
compound	reading
CCOc1ccccc1C1CC(c2ccc(Br)cc2)Nc2nc(N)nn21 (stereo not given)	-4.3e-05
Cc1ccccc1NS(=O)(=O)c1cc(C(=O)N2CCCC2)ccc1C	-3.9e-05
COCCCNC(=O)c1ccc(CS(=O)(=O)c2ccc(OC)cc2)o1	-5.8e-05
CN(C)C(=O)CSc1nnc([C@H](Cc2c[nH]c3ccccc23)NC(=O)OC(C)(C)C)o1	-2.1e-05

Input line: For Voltage-gated potassium channel subunit beta-2 (Rattus norvegicus) (UniProt P62483), provide NADPH fluorescence slope of CCCNC(=O)N1CCN(S(=O)(=O)c2ccc(C)c(C)c2)CC1 please.
Output line: -5.4e-05
